Where these numbers come from: patent US12173330B2

experiment: Production of hydroxy-L-pipecolic acids by culture of recombinant E. coli expressing the hydroxylase (Example 5); type: cell-based, E. coli BL21 (DE3); settings: after 120 hours, 20 mmol/L L-pipecolic acid in medium, 30° C.
measurement.label: Accumulation amount of (4S)-hydroxy-L-proline (mmol/L)

# molecule, u, observed.result
rows = [
    ("McPH: amino acid hydroxylase from Micromonospora chokoriensis, GenBank WP_030487089, SEQ ID NO: 2 (protein, listed as Micromonospora chokoriensis) MRTHFVGEVALDLARLEADLATCRSLEWSEAYSDYVFGGSWKSCMLWAPGGDAGDGVVTDYAYDRSAGFTPHAERLPYLAELIRETADLDRLNFARLALVTNSVIIPHRDLLELSDLPDEARNEHRMHIPLATNDNCFFNEDNVVYRMRRGEVWFLDASRIHSVAVLTAQPRIHLMLDFVDTPGAGSFTRVAGGGVEAGIPVDRIVTRPPLGDDERADLFGVAPLLSMDTFDEVFSIVIKKHFRRDGGSDFVWDTMLELAAKSPDPAVLPHTEELRKHYTLDRSA", "mmol/L", 0),
    ("SmPH: L-proline cis-4-hydroxylase from Sinorhizobium meliloti 1021, GenBank CAC47686, SEQ ID NO: 10 (protein, listed as Sinorhizobium meliloti) MSTHFLGKVKFDEARLAEDLSTLEVAEFSSAYSDFACGKWEACVLRNRTGMQEEDIVVSHNAPALATPLSKSLPYLNELVETHFDCSAVRYTRIVRVSENACIIPHSDYLELDETFTRLHLVLDTNSGCANTEEDKIFHMGLGEIWFLDAMLPHSAACFSKTPRLHLMIDFEATAFPESFLRNVEQPVTTRDMVDPRKELTDEVIEGILGFSIIISEANYREIVSILAKLHFFYKADCRSMYDWLKEICKRRGDPALIEKTASLERFFLGHRERGEVMTY", "mmol/L", 0.2),
    ("CaPH: L-proline cis-4-hydroxylase from Catenulispora acidiphila NBRC102108, GenBank WP_012787640, SEQ ID NO: 6 (protein, listed as Catenulispora acidiphila) MRTQYVAALELDEGRLAKDLETSASFNYSEAYSNYLIGGPWKSAMLYSAGGDAGDGLLTDYDYRQSSDFTDYGRQMPYLQELISTSVDLSRLTFVRLARFAKSVIVPHRDFLELEEIPEDKRSAHRLHIPLATHEECFFSEDNVVYRMRAGELWYFDASRIHSVVSFAEEPRIHLIFDFADRPGAGSLVTVPGEPEGAGVPAASAVDRPQLSDAERAALARLADVLTMDTFSEIFSVLVKKHFRRDGGEHFVWDTLTALARACPDPAVLPHTQELRRYFTLERPSGSGQA", "mmol/L", 0),
    ("XdPH: L-proline cis-4-hydroxylase from Xenorhabdus doucetiae FRM16, GenBank CDG16639, SEQ ID NO: 8 (protein, listed as Xenorhabdus doucetiae) MMSAKLLASIELNQEQIEHDLNIVGSEILDVAYSEYACGNWGTITLWNHSGDAGDQTSREYVGQARPTELGQQLDCINQLIRNNFNISLIKSVRIFRSYNGGAIYPHIDYLEFNQGFKRVHLVLKSDRSCLNSEENTVYHMLPGEVWFVDGHSAHSAMSLSRVGKYSLVLDFDSGAKFEDLYSESHTLCVDNLEPDIIHDRQPLPTSLRDSLAHIAEHADEFNIQSILFLATRFHFSYAVSIREYFQLLDECFSRNPYKSVRERYEALKDILVRSGYTSHNVNHFNSLSGVTIG", "mmol/L", 0.3),
]
